- Assay System: 5-hydroxytryptamine receptor 1A (Rattus norvegicus)
- Sequence (P19327 whole entry): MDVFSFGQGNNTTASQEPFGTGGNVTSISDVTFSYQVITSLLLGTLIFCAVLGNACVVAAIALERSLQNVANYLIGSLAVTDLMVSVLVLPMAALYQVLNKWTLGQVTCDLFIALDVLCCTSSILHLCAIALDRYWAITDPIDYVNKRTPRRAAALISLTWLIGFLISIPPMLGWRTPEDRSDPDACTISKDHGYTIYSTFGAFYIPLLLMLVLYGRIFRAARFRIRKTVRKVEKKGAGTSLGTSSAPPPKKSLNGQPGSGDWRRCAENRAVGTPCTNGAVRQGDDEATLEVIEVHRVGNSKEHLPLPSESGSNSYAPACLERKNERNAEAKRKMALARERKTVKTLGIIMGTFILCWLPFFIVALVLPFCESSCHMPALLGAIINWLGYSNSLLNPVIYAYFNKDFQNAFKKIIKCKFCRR
pKi: −log10 of the molar value.
Listed below: pKi values for each entry.

Compound String: COc1cccc2c1[C@@H]1CCN(CCCCN3C(=O)CC4(CCCC4)CC3=O)C[C@H]1C2
pKi: 8.78
//
Compound String: CCCN1CC[C@H]2c3c(cccc3OC)C[C@@H]2C1
pKi: 7.12
